tested on: P. aeruginosa (derived from ATCC ® 15442 ™); test: Bacteriostasis, log reduction; assay type: cell-based; settings: P. aeruginosa ATCC 15442; 72 h
Entries and their Log Reduction

Solved entries (count: 5):
>  <compound>
O=c1[nH]c(-c2ccc(-c3ccc(B(O)O)cc3)cc2)nc2c1CSCC2

>  <target>
P. aeruginosa (derived from ATCC ® 15442 ™)

>  <Log Reduction>
>3.1

$$$$
>  <compound>
O=c1[nH]c(-c2ccc(B(O)O)cc2)nc2c1CSCC2

>  <target>
P. aeruginosa (derived from ATCC ® 15442 ™)

>  <Log Reduction>
>3.1

$$$$
>  <compound>
COC(=O)NCCOC(C)(C)c1ccc(-c2nc3c(c(=O)[nH]2)CSCC3)cc1

>  <target>
P. aeruginosa (derived from ATCC ® 15442 ™)

>  <Log Reduction>
>2.9

$$$$
>  <compound>
CC(C)(OCCO)c1ccc(-c2nc3c(c(=O)[nH]2)CSCC3)cc1

>  <target>
P. aeruginosa (derived from ATCC ® 15442 ™)

>  <Log Reduction>
>3.1

$$$$
>  <compound>
O=c1[nH]c(-c2ccc(-c3ccc(Br)nc3)cc2)nc2c1CSCC2

>  <target>
P. aeruginosa (derived from ATCC ® 15442 ™)

>  <Log Reduction>
>3.1

$$$$

Next, consider the following compound.
// field: Log Reduction; key: Oc1nc(-c2ccc(C(F)(F)F)cc2)nc2c1CSCC2 [XAV939, reference compound] ; value = >3.1
